Target: Karyopherin-β2 (full length, GST tag removed) (UniProt Q92973)
Sequence (Q92973 9-898): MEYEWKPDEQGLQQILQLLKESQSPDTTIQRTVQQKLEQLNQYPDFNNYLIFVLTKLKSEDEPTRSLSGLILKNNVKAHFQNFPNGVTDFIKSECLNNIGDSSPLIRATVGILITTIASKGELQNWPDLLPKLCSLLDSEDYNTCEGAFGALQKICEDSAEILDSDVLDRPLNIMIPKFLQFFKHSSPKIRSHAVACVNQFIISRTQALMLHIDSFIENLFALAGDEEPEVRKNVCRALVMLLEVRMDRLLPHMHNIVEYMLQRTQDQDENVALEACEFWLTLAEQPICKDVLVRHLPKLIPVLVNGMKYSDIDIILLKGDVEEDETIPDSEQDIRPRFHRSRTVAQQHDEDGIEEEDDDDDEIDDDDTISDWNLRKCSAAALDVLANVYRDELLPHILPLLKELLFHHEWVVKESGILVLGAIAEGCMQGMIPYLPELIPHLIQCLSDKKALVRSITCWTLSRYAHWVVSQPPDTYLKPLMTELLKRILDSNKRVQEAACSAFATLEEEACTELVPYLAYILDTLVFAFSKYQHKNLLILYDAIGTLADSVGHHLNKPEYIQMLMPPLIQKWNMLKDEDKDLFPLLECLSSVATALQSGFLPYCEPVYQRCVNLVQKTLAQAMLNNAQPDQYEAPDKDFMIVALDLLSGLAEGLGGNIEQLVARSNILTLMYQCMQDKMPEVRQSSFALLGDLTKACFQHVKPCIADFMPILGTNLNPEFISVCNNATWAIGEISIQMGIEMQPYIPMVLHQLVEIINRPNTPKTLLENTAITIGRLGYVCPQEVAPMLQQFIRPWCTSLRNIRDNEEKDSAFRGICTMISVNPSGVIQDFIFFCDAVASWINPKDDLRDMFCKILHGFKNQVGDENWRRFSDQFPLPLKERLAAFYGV
Assay: ITC
Parameter: pKd
Lab note — pKd values are minus log10 of concentrations in M.

Dear colleague, I am looking for the recorded pKd of the following substance: MBP-HNRNPH2 R212A (ITC) (from UniProt P55795 103-225) (domain or fragment)
5.49
